Cited source: patent US10040798B2

Biological target: IRAK4 (Homo sapiens (Human), UniProt Q9NWZ3)
Sequence (Q9NWZ3 whole entry): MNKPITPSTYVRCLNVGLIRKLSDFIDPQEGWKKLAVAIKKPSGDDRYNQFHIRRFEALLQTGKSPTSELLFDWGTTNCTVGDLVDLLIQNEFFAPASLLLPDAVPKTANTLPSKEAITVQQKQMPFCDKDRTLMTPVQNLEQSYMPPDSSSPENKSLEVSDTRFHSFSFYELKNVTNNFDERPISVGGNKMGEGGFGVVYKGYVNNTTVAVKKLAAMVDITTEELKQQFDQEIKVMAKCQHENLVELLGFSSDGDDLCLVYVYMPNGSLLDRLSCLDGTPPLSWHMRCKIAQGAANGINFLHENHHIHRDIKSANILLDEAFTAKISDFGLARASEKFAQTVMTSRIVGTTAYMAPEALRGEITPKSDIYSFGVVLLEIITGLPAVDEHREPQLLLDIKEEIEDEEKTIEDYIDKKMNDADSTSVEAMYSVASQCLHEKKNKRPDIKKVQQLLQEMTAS
pIC50: −log10 of the molar value. Structures can show the parent of a compound that is named as a salt.
observation-type: pIC50

Worked examples follow.
Cn1cc(NC(=O)c2ccc3ccc(N4C[C@H]5CC[C@@H]4CN5)nn23)c(C(F)F)n1 (single isomer, unassigned) [Example 38, trifluoroacetate]
8.70
Cn1cc(NC(=O)c2ccc3ccc(N[C@@H]4CCCCNC4)nn23)c(C(F)(F)F)n1 (single isomer, unassigned) [Example 39, trifluoroacetate]
8.70
O=C(Nc1cscc1Br)c1ccc2ccc(N3CCCNCC3)nn12 [Example 60, trifluoroacetate]
6.26
N#Cc1ccccc1NC(=O)c1ccc2ccc(N[C@@H]3CCCC(F)(F)[C@@H]3N)nn12 [Example 110, trifluoroacetate]
6.08
O=C(Nc1ccccc1Cl)c1ccc2ccc(N[C@@H]3CCCC[C@@H]3O)nn12 [Example 93, trifluoroacetate]
5.16
Cn1cc(NC(=O)c2ccc3ccc(N4CC5CCC(C4)N5)nn23)c(C(F)F)n1 [Example 46, trifluoroacetate]
9.00

(I) CC(C)(C)n1cc(NC(=O)c2ccc3ccc(N[C@@H]4CCCC[C@@H]4O)nn23)c(C(F)F)n1 [Example 54, trifluoroacetate]
(II) Cn1cc(NC(=O)c2ccc3ccc(N4C[C@H]5CC[C@@H]4CN5)nn23)c(Cl)n1 (single isomer, unassigned) [Example 34, trifluoroacetate]
## Task Between the entries labeled I and II , whose measured pIC50 is lower? Output the label that corresponds to your choice.
## Result I
(I: 6.19, II: 7.82)

====

So I've got IC50 readings for UniProt Q9NWZ3, take a look.
Counter-ions that a name gives are not always drawn.
observation-type: IC50 (nM)

Examples from the recorded data:
Cn1cc(NC(=O)c2ccc3ccc(N4CC5CCC4CN5)nn23)c(Br)n1 (stereo not drawn) [Example 27, trifluoroacetate]
24
Cn1cc(NC(=O)c2ccc3ccc(N[C@H]4CCCCNC4)nn23)c(C(F)(F)F)n1 (single isomer, unassigned) [Example 40, trifluoroacetate]
2
N[C@@H]1[C@H](Nc2ccc3ccc(C(=O)Nc4ccsc4Br)n3n2)CCCC1(F)F [Example 86, trifluoroacetate]
5240
Cn1cc(NC(=O)c2ccc3ccc(N[C@@H]4CCCNC4)nn23)c(C(F)F)n1 [Example 16, trifluoroacetate]
0.9

(a) O=C(Nc1ccsc1Br)c1ccc2ccc(N3C[C@H]4CC[C@@H]3CN4)nn12 (single isomer, unassigned) [Example 79, trifluoroacetate]
(b) N#Cc1ccccc1NC(=O)c1ccc2ccc(N3CCNCC4(CC4)C3)nn12 [Example 103, trifluoroacetate]
(c) N#Cc1ccccc1NC(=O)c1ccc2ccc(N[C@@H]3CCCNC3)nn12 [Example 105, trifluoroacetate]
## Task List by increasing IC50. A ranking is expressed here by listing the labels in the requested order.
## Result c, a, b

====

pIC50: −log10 of the molar value. Where a name gives a salt, the structure may show the parent alone.
# IRAK4 (Homo sapiens (Human), UniProt Q9NWZ3): pIC50 values follow
observation-type: pIC50

O=C(Nc1ccsc1Br)c1ccc2ccc(N3C[C@@H]4CC[C@H]3CN4)nn12 (single isomer, unassigned) [Example 78, trifluoroacetate]
6.16
Cn1cc(NC(=O)c2ccc3ccc(N[C@H]4CCCCNC4)nn23)c(C(F)F)n1 (single isomer, unassigned) [Example 42, trifluoroacetate]
9.52
Cn1ncc(NC(=O)c2ccc3ccc(N[C@@H]4CCCC[C@@H]4N)nn23)c1C(F)(F)F [Example 45, trifluoroacetate]
6.87

(P) N[C@H]1CCCC[C@H]1Nc1ccc2ccc(C(=O)Nc3cscc3Br)n2n1 [Example 63, trifluoroacetate]
(Q) O=C(Nc1ccccc1Br)c1ccc2ccc(N[C@@H]3CCCC[C@@H]3O)nn12 [Example 95, trifluoroacetate]
(R) O=C(Nc1cscc1C(F)F)c1ccc2ccc(N3CCCNCC3)nn12 [Example 69, trifluoroacetate]
(S) Cn1cc(NC(=O)c2ccc3ccc(N[C@@H]4CCCC(F)(F)[C@@H]4N)nn23)c(C#N)n1 [Example 52, trifluoroacetate]
## Task Endpoint returns the given molecules ordered by ascending pIC50. Please list the labels according to the requested order.
## Result Q, R, S, P
(Q: 5.23, R: 6.82, S: 7.37, P: 8.15)

(I) Cn1cc(NC(=O)c2ccc3ccc(N[C@@H]4CCCC[C@@H]4O)nn23)c(C(F)F)n1 [Example 20, trifluoroacetate]
(II) N#Cc1cscc1NC(=O)c1ccc2ccc(N3CC4CCC3CN4)nn12 (stereo not shown) [Example 74, trifluoroacetate]
## Task Please indicate which entry, I or II , has the lower recorded pIC50 value. State your choice using its label.
## Result II
(II: 6.87, I: 7.96)

====

The following are reported pIC50 results, target or system IRAK4 (Homo sapiens (Human), UniProt Q9NWZ3).
pIC50: −log10 of the molar value. Structures can show the parent of a compound that is named as a salt.
observation-type: pIC50

N#Cc1ccccc1NC(=O)c1ccc2ccc(N[C@@H]3CCCC[C@@H]3N)nn12 [Example 106, trifluoroacetate]
8.22
Cn1cc(NC(=O)c2ccc3ccc(N4C[C@@H]5CC[C@H]4CN5)nn23)c(Br)n1 (single isomer, unassigned) [Example 35, trifluoroacetate]
7.47
N[C@@H]1[C@H](Nc2ccc3ccc(C(=O)Nc4ccsc4Cl)n3n2)CCCC1(F)F [Example 90, trifluoroacetate]
5.72
Cn1cc(NC(=O)c2ccc3ccc(N4CCNCC5(CC5)C4)nn23)c(C(F)(F)F)n1 [Example 9, trifluoroacetate]
7.57

(a) Cn1cc(NC(=O)c2ccc3ccc(N4C[C@H]5CC[C@@H]4CN5)nn23)c(C#N)n1 (single isomer, unassigned) [Example 44, trifluoroacetate]
(b) N[C@@H]1[C@H](Nc2ccc3ccc(C(=O)Nc4cscc4C(F)F)n3n2)CCCC1(F)F [Example 96, trifluoroacetate]
## Task For this pair, a and b , which shows a numerically higher pIC50? // output: label of the selected item
## Result a
(a: 7.30, b: 6.12)

(a) O=C(Nc1cscc1C(F)F)c1ccc2ccc(N3CC4CCC3CN4)nn12 (centres unmarked) [Example 56, trifluoroacetate]
(b) O=C(Nc1ccsc1C(F)(F)F)c1ccc2ccc(N3C[C@H]4CC[C@@H]3CN4)nn12 (single isomer, unassigned) [Example 114, trifluoroacetate]
## Task Looking only at measured pIC50, which entry is lower, a or b ? Answer = label.
## Result b
(b: 5.75, a: 7.02)
